Reference for the values: paper PMC9962735

experiment: MTT cytotoxicity assay, SNU-1; type: cell-based, human; details: human, CC50 of WI-38 divided by CC50 of SNU-1 (Table 3); read-out: SCI (selective cytotoxicity index)
Under this convention, fulfilled denotes selectivity ratio at 72 h strictly below 4 and not fulfilled denotes selectivity ratio at 72 h at or above 4.

Worked cases, answers included:
{"COMPOUND": "CC(=O)OCCOCn1cnc2c(NCCCCCCCCCCC(=O)N3c4ccc(F)c(F)c4OCC3C)ncnc21 (centres unmarked)", "LABEL_VALUE": "not fulfilled"}
{"COMPOUND": "CC1COc2c(ccc(F)c2F)N1C(=O)CCCCCCCCCCNc1ncnc2[nH]cnc12 (centres unmarked)", "LABEL_VALUE": "not fulfilled"}
{"COMPOUND": "CC1COc2c(ccc(F)c2F)N1C(=O)CCCCCCCCCCNc1ncnc2c1ncn2COCCO (centres unmarked)", "LABEL_VALUE": "fulfilled"}
{"COMPOUND": "COc1cccc2c1C(=O)c1c(O)c3c(c(O)c1C2=O)C[C@@](O)(C(=O)CO)C[C@@H]3O[C@H]1C[C@H](N)[C@H](O)[C@H](C)O1 [Dox, Doxorubicin, reference compound]", "LABEL_VALUE": "fulfilled"}

Prompt line: Input CC1COc2c(ccc(F)c2F)N1C(=O)CCCCCNc1ncnc2[nH]cnc12 (centres unmarked) ; condition: selectivity ratio at 72 h strictly below 4. Does it hold?
Response line: not fulfilled
